# System: L02
# test name: Cytotoxicity against human L02 cells assessed as cell growth inhibition measured after 24 hrs by MTT assay
# Format: cell-based
# condition notes: L02, 24 h
reported endpoint: pIC50
Friendly reminder that pIC50 comes from taking -log10 of the concentration in mol/L.

>>> measurement("C=CS(=O)(=O)N1CCN(C(=O)CCC(=O)O[C@H]2CC[C@@]3(C)C(=CC[C@H]4[C@@H]5C[C@@H]6O[C@]7(CC[C@@H](C)CO7)[C@@H](C)[C@@H]6[C@@]5(C)CC[C@@H]43)C2)CC1")
4.63

Briefly, pIC50 measured for `Cc1ccc(C[N+]2(Cc3ccc(C)cc3)CCN(C(=O)CCC(=O)O[C@H]3CC[C@@]4(C)C(=CC[C@H]5[C@@H]6C[C@@H]7O[C@]8(CC[C@@H](C)CO8)[C@@H](C)[C@@H]7[C@@]6(C)CC[C@@H]54)C3)CC2)cc1` : 4.74
